Provenance of the data: the NIST ThermoML archive (doi:10.1016/j.tca.2011.06.003)

# settings: 298.15 K; 101.33 kPa; Liquid; Sing-around technique in a fixed-path interferometer
readout: speed of sound (m/s)

Look over these answered cases.
smiles=CCCCO unitssymbol=m/s quantitativeresult=1241.1
smiles=CC(C)CO unitssymbol=m/s quantitativeresult=1188.8

I. NCCNCCN
II. CC(C)O
Enquiry: Of I and II , which one carries the higher reported speed of sound? Refer to your chosen entry by its label in the reply.
Return: I
(I: 1670.5 m/s, II: 1140.4 m/s)

----------
# settings: 298.15 K; 101.33 kPa; Liquid; Vibrating tube method
readout: mass density (kg/m3)

smiles=CC(C)O quantitativeresult=781.482
smiles=CCCCO quantitativeresult=805.953
smiles=NCCNCCN quantitativeresult=945.548
smiles=CC(C)CO quantitativeresult=798.104

----------
# settings: 298.15 K; 101.33 kPa; Liquid; Capillary tube (Ostwald / Ubbelohde) method
readout: viscosity (mPa·s)

Look over these answered cases.
smiles=CC(C)O quantitativeresult=2.063
smiles=CC(C)CO quantitativeresult=3.307

1. CCCCO
2. NCCNCCN
Enquiry: Of 1 and 2 , which one carries the higher reported viscosity? Refer to your chosen entry by its label in the reply.
Return: 2
